# target: BRD4 BD2 (Homo sapiens, UniProt O60885)
# assay_procedure: AlphaScreen binding assay, BRD4 Bromodomain 2
pIC50: −log10 of the molar value.
observable: pIC50

Example molecules with recorded pIC50:
C[C@H]1CN(C(=O)OC2CCOCC2)c2cc(-c3cnn(C4CC4)c3)ccc2N1C(=O)C1CC1 | 6.30 to 7.30
CNS(=O)(=O)c1cccc(-c2ccc3c(c2)N(C(=O)OC(C)C)C[C@H](C)N3C(C)=O)c1 | 6.30 to 7.30
CC(=O)N1c2cnc(-c3ccc(S(C)(=O)=O)cc3)cc2N(C(=O)OC(C)C)C[C@@H]1C | < 6.30

### Prompt State pIC50 on BRD4 BD2 (Homo sapiens, UniProt O60885). Entry: `CC(=O)N1c2ccc(-c3cnn(C4CC4)c3)nc2N(C(=O)OC(C)C)C[C@@H]1C`
### Response 6.30 to 7.30

### Prompt State pIC50 on BRD4 BD2 (Homo sapiens, UniProt O60885). Entry: `CC(=O)N1c2ccc(-c3ccc4nccn4n3)cc2N(C(=O)c2ccco2)C[C@@H]1C`
### Response 6.30 to 7.30

### Prompt State pIC50 on BRD4 BD2 (Homo sapiens, UniProt O60885). Entry: `CC(=O)N1c2ccc(-c3ncccn3)cc2N(C(=O)c2ccco2)C[C@@H]1C`
### Response 6.30 to 7.30

### Prompt State pIC50 on BRD4 BD2 (Homo sapiens, UniProt O60885). Entry: `CC(=O)N1c2ccc(-c3cnn(CCN4CCCS4(=O)=O)c3)cc2N(C(=O)OC(C)C)C[C@@H]1C`
### Response 6.30 to 7.30

### Prompt State pIC50 on BRD4 BD2 (Homo sapiens, UniProt O60885). Entry: `CC(=O)N1c2ccc(-c3cccc(S(=O)(=O)NCCO)c3)cc2N(C(=O)OC2CCOCC2)C[C@@H]1C`
### Response 6.30 to 7.30

### Prompt State pIC50 on BRD4 BD2 (Homo sapiens, UniProt O60885). Entry: `COCCn1cc(-c2ccc3c(c2)N(C(=O)OC(C)C)C[C@H](C)N3C(=O)OC)cn1`
### Response 6.30 to 7.30

### Prompt State pIC50 on BRD4 BD2 (Homo sapiens, UniProt O60885). Entry: `CC(=O)N1c2ccccc2N(C(=O)c2ccc(C(C)C)nc2)C[C@@H]1C`
### Response < 6.30

### Prompt State pIC50 on BRD4 BD2 (Homo sapiens, UniProt O60885). Entry: `CC(=O)N1c2ccccc2N(C(=O)COCC(C)C)C[C@@H]1C`
### Response < 6.30

### Prompt State pIC50 on BRD4 BD2 (Homo sapiens, UniProt O60885). Entry: `CC(=O)N1c2ccc(-c3cnn(C4CC4)c3)cc2N(C(=O)Oc2ccc(C)nc2C)C[C@@H]1C`
### Response 6.30 to 7.30

### Prompt State pIC50 on BRD4 BD2 (Homo sapiens, UniProt O60885). Entry: `CC(=O)N1c2ccc(-c3cnn(Cc4noc(C)n4)c3)cc2N(C(=O)C2CC2)C[C@@H]1C`
### Response 6.30 to 7.30

### Prompt State pIC50 on BRD4 BD2 (Homo sapiens, UniProt O60885). Entry: `COC(=O)N1c2ccc(-c3cnn(CC4COC4)c3)cc2N(C(=O)OC(C)C)C[C@@H]1C`
### Response 6.30 to 7.30

### Prompt State pIC50 on BRD4 BD2 (Homo sapiens, UniProt O60885). Entry: CC(=O)N1c2ccc(-c3ccc(S(C)(=O)=O)cc3)cc2N(C(=O)c2cc3cc(O)ccc3[nH]2)CC1C (stereo not drawn)
### Response 6.30 to 7.30
